Test system: 628569-122-R-J1-PDC complex spheroid viability
Test: Anticancer human tumor 628569-122-R-J1-PDC patient-derived head and neck squamous carcinoma cell line growth inhibition [CLK]; active = viability on the fitted dose curve at most 10% of control; inactive = the rest
Conditions: second compound 0.316 µM; first compound 0.316 µM
Select the matching outcome among active, inactive

Consider the following illustrative entries.
compound	class.label
COc1c(OCCCN2CCOCC2)ccc2c3n(c(=NC(=O)c4cnc(N)nc4)nc12)CCN3 + CN1CCN(c2cc(C(=O)Nc3cc4cc(-c5cnn(C)c5)ccc4cn3)ccn2)CC1	active
Nc1ccccc1NC(=O)c1ccc(CNC(=O)OCc2cccnc2)cc1 + CNC(=O)c1ccc(Nc2nc(OC3CCCC3)c3c(-c4ccc5nc(C)oc5c4)c[nH]c3n2)c(OC)c1	inactive

Consider the additional compound presented here.
input: Answer briefly: the call reported for COC1C=CCC(C)C(C)S(=O)(=O)NC(=O)c2ccc3c(c2)N(CC2CCC21)CC1(CCCc2cc(Cl)ccc21)CO3 (stereo not drawn) + CN1CCN(c2cc(C(=O)Nc3cc4cc(-c5cnn(C)c5)ccc4cn3)ccn2)CC1 in this assay.
output: inactive

###

IC50 listing for selected compounds.
Test system: 628569-122-R-J1-PDC complex spheroid viability
Assay: Anticancer human tumor 628569-122-R-J1-PDC cell line growth inhibition [CLK];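 note: spheroids exposed to agents for seven days before readout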
Conditions: curve of first compound; second compound 1 µM

Examples with answers:
compound	test.value
Nc1ccn(C2OC(CO)C(O)C2(F)F)c(=O)n1 (stereo not drawn) + CNC(=O)c1ccc(Nc2nc(OC3CCCC3)c3c(-c4ccc5nc(C)oc5c4)c[nH]c3n2)c(OC)c1	< 31.6 nM
COc1ccc([C@@H](O)c2cc(-c3ncnc4cc(N5CCOCC5)ccc34)c(F)cc2Cl)nn1 + CN1CCN(c2cc(C(=O)Nc3cc4cc(-c5cnn(C)c5)ccc4cn3)ccn2)CC1	< 31.6 nM

The measured IC50 associated with CC1COCCN1c1cc(C2(S(C)(=N)=O)CC2)nc(-c2ccnc3[nH]ccc23)n1 (stereo not drawn) + CNC(=O)c1ccc(Nc2nc(OC3CCCC3)c3c(-c4ccc5nc(C)oc5c4)c[nH]c3n2)c(OC)c1 reads < 31.6 nM

###

System: 628569-122-R-J1-PDC complex spheroid viability
Assay: Anticancer human tumor 628569-122-R-J1-PDC cell line growth inhibition [CLK];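 note: spheroids exposed to agents for seven days before readout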;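 for viability, T/C: 100% = DMSO vehicle control viability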
Conditions: second compound 3.16 µM; first compound 0.01 µM; stronger effect = lower value
quantity.measured: viability, T/C (%)
Supply the numeric figure in %, leaving out any unit text.

Examples with answers:
compound	endpoint.unit	viability, T/C
COc1c(OCCCN2CCOCC2)ccc2c3n(c(=NC(=O)c4cnc(N)nc4)nc12)CCN3 + CN1CCN(c2cc(C(=O)Nc3cc4cc(-c5cnn(C)c5)ccc4cn3)ccn2)CC1	%	5.77
Cn1ncnc1[C@H]1c2n[nH]c(=O)c3cc(F)cc(c23)N[C@@H]1c1ccc(F)cc1 + CN1CCN(c2cc(C(=O)Nc3cc4cc(-c5cnn(C)c5)ccc4cn3)ccn2)CC1	%	8.93

Now for a further compound.
The measured viability, T/C associated with CCN1CCN(Cc2ccc(Nc3ncc(F)c(-c4cc(F)c5nc(C)n(C(C)C)c5c4)n3)nc2)CC1 + CNC(=O)c1ccc(Nc2nc(OC3CCCC3)c3c(-c4ccc5nc(C)oc5c4)c[nH]c3n2)c(OC)c1 reads 55.7

###

System: 628569-122-R-J1-PDC complex spheroid viability
Test: Anticancer human tumor 628569-122-R-J1-PDC cell line growth inhibition [CLK];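 note: spheroids exposed to agents for seven days before readout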;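 for viability, T/C: 100% = DMSO vehicle control viability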
Settings: second compound 0.316 µM; first compound 1 µM; stronger effect = lower value
viability, T/C listing for selected compounds.

Examples with answers:
compound	viability, T/C
CCCS(=O)(=O)Nc1ccc(F)c(C(=O)c2c[nH]c3ncc(-c4ccc(Cl)cc4)cc23)c1F + CN1CCN(c2cc(C(=O)Nc3cc4cc(-c5cnn(C)c5)ccc4cn3)ccn2)CC1	46.5%
CC(Nc1ccc2c(c1)OCCn1cc(N3C(=O)OCC3C(F)F)nc1-2)C(N)=O (centres undefined) + CN1CCN(c2cc(C(=O)Nc3cc4cc(-c5cnn(C)c5)ccc4cn3)ccn2)CC1	13.5%
COc1c(OCCCN2CCOCC2)ccc2c3n(c(=NC(=O)c4cnc(N)nc4)nc12)CCN3 + CNC(=O)c1ccc(Nc2nc(OC3CCCC3)c3c(-c4ccc5nc(C)oc5c4)c[nH]c3n2)c(OC)c1	6.59%

Now for a further compound.
The measured viability, T/C associated with C#Cc1c(F)ccc2cc(O)cc(-c3ncc4c(N5CC6CCC(C5)N6)nc(OCC56CCCN5CC(F)C6)nc4c3F)c12 (centres undefined) + CNC(=O)c1ccc(Nc2nc(OC3CCCC3)c3c(-c4ccc5nc(C)oc5c4)c[nH]c3n2)c(OC)c1 reads 53.4%
